# measured-on: T1, TNFR1 (Homo sapiens, UniProt P19438)
# T1 chain: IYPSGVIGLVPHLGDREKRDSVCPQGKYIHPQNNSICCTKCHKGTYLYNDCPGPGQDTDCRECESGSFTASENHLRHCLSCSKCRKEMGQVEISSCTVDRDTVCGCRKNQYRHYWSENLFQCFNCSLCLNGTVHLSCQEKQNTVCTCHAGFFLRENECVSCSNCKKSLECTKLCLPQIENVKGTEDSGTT
# protocol-description: yeast display SC50
assay-readout: apparent Kd (screen) (nM)
Please give a number only; it is taken to be in nM.

Check out these entries, answers already filled in.
E37Y (designed binder) SMEEEVEKAAKEYEKKKKEAIEKHLEKLKAKDKEAAYRFLKELEEAAKEYAKDEAKTMSEEEAKRRAKKYKEKVLLSELSEEEQKEIKEAEEKLVRTILKYVEEAAK	0.49
V74T (designed binder) SMEEEVEKAAKEYEKKKKEAIEKHLEKLKAKDKEAAERFLKELEEAAKEYAKDEAKTMSEEEAKRRAKKYKEKTLLSELSEEEQKEIKEAEEKLVRTILKYVEEAAK	16.7
E49K (designed binder) SMEEEVEKAAKEYEKKKKEAIEKHLEKLKAKDKEAAERFLKELEEAAKKYAKDEAKTMSEEEAKRRAKKYKEKVLLSELSEEEQKEIKEAEEKLVRTILKYVEEAAK	10.4
Y50K (designed binder) SMEEEVEKAAKEYEKKKKEAIEKHLEKLKAKDKEAAERFLKELEEAAKEKAKDEAKTMSEEEAKRRAKKYKEKVLLSELSEEEQKEIKEAEEKLVRTILKYVEEAAK	3.99
K64L (designed binder) SMEEEVEKAAKEYEKKKKEAIEKHLEKLKAKDKEAAERFLKELEEAAKEYAKDEAKTMSEEEALRRAKKYKEKVLLSELSEEEQKEIKEAEEKLVRTILKYVEEAAK	0.446

Documented apparent Kd (screen) of E26S (designed binder) SMEEEVEKAAKEYEKKKKEAIEKHLSKLKAKDKEAAERFLKELEEAAKEYAKDEAKTMSEEEAKRRAKKYKEKVLLSELSEEEQKEIKEAEEKLVRTILKYVEEAAK : 0.539

Documented apparent Kd (screen) of S77Y (designed binder) SMEEEVEKAAKEYEKKKKEAIEKHLEKLKAKDKEAAERFLKELEEAAKEYAKDEAKTMSEEEAKRRAKKYKEKVLLYELSEEEQKEIKEAEEKLVRTILKYVEEAAK : 0.869

Documented apparent Kd (screen) of S59Y (designed binder) SMEEEVEKAAKEYEKKKKEAIEKHLEKLKAKDKEAAERFLKELEEAAKEYAKDEAKTMYEEEAKRRAKKYKEKVLLSELSEEEQKEIKEAEEKLVRTILKYVEEAAK : 7.78
